assay: MDCK cells permeability; type: in vitro ADME, canine; settings: dog, MDCK
property name: Papp at 120 min (×10⁻⁶ cm/s)

| smiles repr | reported measurement |
| --- | --- |
| O=C(O)c1c(-c2ccc(Cl)cc2)csc1NC(=O)c1cccc2ccccc12 | 13.8 |
